HepSE_cirrhosis data for Hepatotoxicity follow.
measured_metric: HepSE_cirrhosis

molecule=CN(C)/N=N/c1[nH]cnc1C(N)=O measured_number=0
molecule=O=NN(CCCl)C(=O)NC1CCCCC1 measured_number=0
molecule="Nc1nc2c(c(=O)[nH]1)N(C=O)C(CNc1ccc(C(=O)N[C@@H](CCC(=O)O)C(=O)O)cc1)CN2 (stereo not given in full)" measured_number=0
molecule=CC(C)Cn1cnc2c(N)nc3ccccc3c21 measured_number=0
molecule=CN(C)CCCN1c2ccccc2Sc2ccc(Cl)cc21 measured_number=1

###

System: Hepatotoxicity
Conditions: Liver
Description: Drug Induced Liver Injury Prediction System (DILIps) validation dataset; compound DILI positive/negative as observed in Pfizer data
Listing of entries alongside the reported DILI positive/negative.
measured_metric: DILI positive/negative

compound="Cc1c(F)c(N2CCNC(C)C2)cc2c1c(=O)c(C(=O)O)cn2C1CC1 (stereo not given)" measured_metric="DILI positive/negative" measured_number=1
compound="CC1(C)S[C@@H]2[C@H](NC(=O)[C@H](NC(=O)N3CCN(S(C)(=O)=O)C3=O)c3ccccc3)C(=O)N2[C@H]1C(=O)[O-].[Na+] [MEZLOCILLIN SODIUM]" measured_metric="DILI positive/negative" measured_number=1
compound=Cc1ncc(CO)c(CO)c1O measured_metric="DILI positive/negative" measured_number=0
compound="C#CC1(O)CC[C@H]2[C@@H]3CCC4=CC(=O)CC[C@@H]4[C@H]3CC[C@@]21CC (stereo not given in full)" measured_metric="DILI positive/negative" measured_number=1
compound=Cl.NCCNCCNCCN measured_metric="DILI positive/negative" measured_number=1

###

Listing of entries alongside the reported HepSE_bilirubinemia.
Test system: Hepatotoxicity
measured_metric: HepSE_bilirubinemia

smiles_data=CN(C)CCCOc1nn(Cc2ccccc2)c2ccccc12 tested_system=Hepatotoxicity measured_number=0
smiles_data=CC[C@H](C)C[C@H](C)CCCCCCCCC(=O)N[C@H]1C[C@@H](O)[C@@H](NCCN)NC(=O)[C@@H]2[C@@H](O)CCN2C(=O)[C@H]([C@H](O)CCN)NC(=O)[C@H]([C@H](O)[C@@H](O)c2ccc(O)cc2)NC(=O)[C@@H]2C[C@@H](O)CN2C(=O)[C@H]([C@@H](C)O)NC1=O tested_system=Hepatotoxicity measured_number=1
smiles_data=[Li] tested_system=Hepatotoxicity measured_number=0
smiles_data=Nc1nc(Cl)nc2c1ncn2[C@@H]1O[C@H](CO)[C@@H](O)[C@@H]1F tested_system=Hepatotoxicity measured_number=1
smiles_data=CCCCC[C@H](O)/C=C/[C@@H]1[C@H]2C/C(=C/CCCC(=O)O)O[C@H]2C[C@H]1O tested_system=Hepatotoxicity measured_number=0
smiles_data=C[C@@H]1[C@H](O)[C@@H](C)/C=C/C=C/C=C/C=C/C=C/C=C/C=C/[C@H](O[C@@H]2O[C@H](C)[C@@H](O)[C@H](N)[C@@H]2O)C[C@@H]2O[C@](O)(C[C@@H](O)C[C@@H](O)[C@H](O)CC[C@@H](O)C[C@@H](O)CC(=O)O[C@H]1C)C[C@H](O)[C@H]2C(=O)O tested_system=Hepatotoxicity measured_number=1

###

HepSE_cirrhosis data for Hepatotoxicity follow.
measured_metric: HepSE_cirrhosis

molecule=CN1C[C@H](C(=O)N[C@]2(C)O[C@@]3(O)[C@@H]4CCCN4C(=O)[C@H](Cc4ccccc4)N3C2=O)C=C2c3cccc4[nH]cc(c34)C[C@H]21 measured_number=0
molecule="CN1CC[C@]23c4c5ccc(O)c4O[C@H]2C(=O)CC[C@H]3[C@H]1C5 [HYDROMORPHONE]" measured_number=0
molecule="C=CCC1(C(C)C#CCC)C(=O)N=C(O)N(C)C1=O (centres undefined)" measured_number=0
molecule="C[C@]12CCC(=O)C=C1CC[C@@H]1[C@@H]2[C@@H](O)C[C@@]2(C)[C@H]1CC[C@]2(O)C(=O)CO [HYDROCORTISONE]" measured_number=0
molecule="CC(C)NCC(O)COc1ccc(COCCOC(C)C)cc1 (centres undefined)" measured_number=0
molecule=C[C@H]1[C@H](NC(=O)/C(=N\OC(C)(C)C(=O)O)c2csc(N)n2)C(=O)N1S(=O)(=O)O measured_number=0
molecule="COC(=O)CCC(=O)CN [METHYL AMINOLEVULINATE]" measured_number=0
molecule=O=C(c1ccc(OCCN2CCCCC2)cc1)c1c(-c2ccc(O)cc2)sc2cc(O)ccc12 measured_number=0
molecule=OC[C@@H](O)[C@@H](O)[C@H](O)[C@H](O)CO measured_number=0

###

HepSE_jaundice data for Hepatotoxicity follow.
measured_metric: HepSE_jaundice

compound="NC(=O)c1ncn([C@@H]2O[C@H](CO)[C@@H](O)[C@H]2O)n1 [RIBAVIRIN]" measured_metric=HepSE_jaundice measured_number=0
compound="CN(CCOc1ccc(NS(C)(=O)=O)cc1)CCc1ccc(NS(C)(=O)=O)cc1 [DOFETILIDE]" measured_metric=HepSE_jaundice measured_number=0
compound="CC(=O)NS(=O)(=O)c1ccc(N)cc1 [SULFACETAMIDE]" measured_metric=HepSE_jaundice measured_number=0
compound="C[C@]12CC[C@@H]3c4ccc(O)cc4C[C@@H](CCCCCCCCC[S+]([O-])CCCC(F)(F)C(F)(F)F)[C@H]3[C@@H]1CC[C@@H]2O (stereo partly specified) [FULVESTRANT]" measured_metric=HepSE_jaundice measured_number=0
compound="N[C@@H]1CON=C1O [CYCLOSERINE]" measured_metric=HepSE_jaundice measured_number=0
compound="Clc1ccc(C(c2ccccc2Cl)C(Cl)Cl)cc1 (stereo unspecified) [MITOTANE]" measured_metric=HepSE_jaundice measured_number=0
compound="O=NN(CCCl)C(=O)NCCCl [CARMUSTINE]" measured_metric=HepSE_jaundice measured_number=0
compound="COC(=O)C1=C(C)NC(C)=C(C(=O)OCCN(C)Cc2ccccc2)C1c1cccc([N+](=O)[O-])c1 (stereo unspecified) [NICARDIPINE]" measured_metric=HepSE_jaundice measured_number=0
compound="C[C@]1(O)CC[C@H]2[C@@H]3CCC4=CC(=O)CC[C@]4(C)[C@@]3(F)[C@@H](O)C[C@@]21C [FLUOXYMESTERONE]" measured_metric=HepSE_jaundice measured_number=1
compound="CC(=O)NC[C@H]1CN(c2ccc(N3CCOCC3)c(F)c2)C(=O)O1 [LINEZOLID]" measured_metric=HepSE_jaundice measured_number=1
compound="Cc1ncc2n1-c1ccc(Cl)cc1C(c1ccccc1F)=NC2 [MIDAZOLAM]" measured_metric=HepSE_jaundice measured_number=0
compound="C=C1C[C@@H]2[C@H](CC[C@]3(C)C(=O)CC[C@@H]23)[C@@]2(C)C=CC(=O)C=C12 [EXEMESTANE]" measured_metric=HepSE_jaundice measured_number=0
compound="COc1c(N2C[C@@H]3CCCN[C@@H]3C2)c(F)cc2c(=O)c(C(=O)O)cn(C3CC3)c12 [MOXIFLOXACIN]" measured_metric=HepSE_jaundice measured_number=1
compound="CCCCN1CCCCC1C(=O)Nc1c(C)cccc1C (stereo unspecified) [BUPIVACAINE]" measured_metric=HepSE_jaundice measured_number=0
compound="COCC1=C(C(=O)O)N2C(=O)[C@@H](NC(=O)/C(=N\\OC)c3csc(N)n3)[C@H]2SC1 [CEFPODOXIME]" measured_metric=HepSE_jaundice measured_number=0
compound="Cc1ccccc1C(OCCN(C)C)c1ccccc1 (stereo unspecified) [ORPHENADRINE]" measured_metric=HepSE_jaundice measured_number=0
compound="C[C@H]1C[C@H]2[C@@H]3CCC4=CC(=O)C=C[C@]4(C)[C@@]3(Cl)[C@@H](O)C[C@]2(C)[C@@]1(O)C(=O)CO [BECLOMETHASONE]" measured_metric=HepSE_jaundice measured_number=0
compound="CN(CCOc1ccc(CC2SC(=O)NC2=O)cc1)c1ccccn1 (stereo unspecified) [ROSIGLITAZONE]" measured_metric=HepSE_jaundice measured_number=0
compound="CCCC1O[C@@H]2C[C@H]3[C@@H]4CCC5=CC(=O)C=C[C@]5(C)[C@H]4[C@@H](O)C[C@]3(C)[C@]2(C(=O)CO)O1 (stereo partly specified) [BUDESONIDE]" measured_metric=HepSE_jaundice measured_number=0
compound="Nc1nc2ncc(CNc3ccc(C(=O)N[C@@H](CCC(=O)O)C(=O)O)cc3)nc2c(=O)[nH]1 [FOLIC ACID]" measured_metric=HepSE_jaundice measured_number=0
compound="NC[C@H](O)c1ccc(O)c(O)c1 [NOREPINEPHRINE]" measured_metric=HepSE_jaundice measured_number=0
compound="CC(=O)N(O)CCCCCNC(=O)CCC(=O)N(O)CCCCCNC(=O)CCC(=O)N(O)CCCCCN [DEFEROXAMINE]" measured_metric=HepSE_jaundice measured_number=0
compound="CCCCC[C@H](O)/C=C/[C@@H]1[C@H]2C/C(=C/CCCC(=O)O)O[C@H]2C[C@H]1O [EPOPROSTENOL]" measured_metric=HepSE_jaundice measured_number=0
compound="CC(C)Nc1cccnc1N1CCN(C(=O)c2cc3cc(NS(C)(=O)=O)ccc3[nH]2)CC1 [DELAVIRDINE]" measured_metric=HepSE_jaundice measured_number=1
compound="CCCC(=O)Nc1ccc(OCC(O)CNC(C)C)c(C(C)=O)c1 (stereo unspecified) [ACEBUTOLOL]" measured_metric=HepSE_jaundice measured_number=0
compound="Cc1cc2c(s1)Nc1ccccc1N=C2N1CCN(C)CC1 [OLANZAPINE]" measured_metric=HepSE_jaundice measured_number=1
compound="CN[C@@H](C)Cc1ccccc1 [METHAMPHETAMINE]" measured_metric=HepSE_jaundice measured_number=0
compound="NC(=O)C[S+]([O-])C(c1ccccc1)c1ccccc1 (stereo unspecified) [MODAFINIL]" measured_metric=HepSE_jaundice measured_number=0
compound="C[C@@H]1O[C@@H]1P(=O)(O)O [FOSFOMYCIN]" measured_metric=HepSE_jaundice measured_number=1
compound="COc1ccccc1OCCNCC(O)COc1cccc2[nH]c3ccccc3c12 (stereo unspecified) [CARVEDILOL]" measured_metric=HepSE_jaundice measured_number=0
compound="CC(COc1ccccc1)NC(C)C(O)c1ccc(O)cc1 (stereo unspecified) [ISOXSUPRINE]" measured_metric=HepSE_jaundice measured_number=0
compound="O=C1Nc2ccc(Cl)cc2C(c2ccccc2Cl)=NC1O (stereo unspecified) [LORAZEPAM]" measured_metric=HepSE_jaundice measured_number=1
compound="C[C@H]1C[C@@H]2[C@H]([C@@H](O)C[C@@]3(C)[C@H]2CC[C@]3(O)C(=O)CO)[C@@]2(C)C=CC(=O)C=C12 [METHYLPREDNISOLONE]" measured_metric=HepSE_jaundice measured_number=0
compound="FC(F)OC(F)(F)C(F)Cl (stereo unspecified)" measured_metric=HepSE_jaundice measured_number=0
compound="C=C(CC)C(=O)c1ccc(OCC(=O)O)c(Cl)c1Cl [ETHACRYNIC ACID]" measured_metric=HepSE_jaundice measured_number=1
compound="FCOC(C(F)(F)F)C(F)(F)F [SEVOFLURANE]" measured_metric=HepSE_jaundice measured_number=1
